- Tested on: adipocytes
- experimental_protocol: LIVE/DEAD calcein/ethidium bromide assay, adipocyte kill rate
- Assay type: cell-based, human
- conditions_used: kill rate (ethidium); all tissue types on the same plate
So basically: Adipocyte, averaged ethidium numbers at 100 or higher? That is Y. Lower than 100? That is N.

Quick check, Adipocyte, averaged ethidium numbers >= 100? O=C(O)[C@H]1Cc2c([nH]c3ccccc23)[C@@H](c2ccc(O)cc2O)N1 [Compound 78]
N

Next:
Identify whether the reported Adipocyte, averaged ethidium numbers of the following compound is 100 or greater: c1ccc2[nH]ccc2c1 [Compound 33, 1H-indole]
N

Identify whether the reported Adipocyte, averaged ethidium numbers of the following compound is 100 or greater: O=Cc1cc2ccccc2[nH]1 [Compound 2, 1H-indole-2-carbaldehyde]
Y

Please tell me: is the compound O=Cc1c[nH]c2c3c(ccc12)CCC3 [Compound 7] at or over 100 in terms of Adipocyte, averaged ethidium numbers?
Y

Threshold query (Adipocyte, averaged ethidium numbers >= 100) on O=C(O)Cc1c[nH]c2ccc(Br)cc12 [Compound 41, 2-(5-bromo-1H-indol-3-yl) acetic acid]
Y

Determine whether this compound has Adipocyte, averaged ethidium numbers no lower than 100: O=Cc1c[nH]c2cccc(OCc3ccccc3)c12 [Compound 43, 4-(benzyloxy)-1H-indole-3-carbaldehyde]
Y

Has O=C(O)c1cc2cc(Br)ccc2[nH]1 [Compound 40, 5-bromo-1H-indole-2-carboxylic acid] a recorded Adipocyte, averaged ethidium numbers greater than or equal to 100?
Y

====

- Test system: skeletal muscle cells
- experimental_protocol: LIVE/DEAD calcein/ethidium bromide assay, muscle cell kill rate
- Type: cell-based, human
- conditions_used: kill rate (ethidium); same plate as adipocytes
Assign Y to entries whose Muscle, averaged ethidium numbers meets or exceeds 40; assign N to the rest.

// below: answered compounds
Quick check, Muscle, averaged ethidium numbers >= 40? O=Cc1cccc2cc[nH]c12
Y

Muscle, averaged ethidium numbers >= 40 for O=Cc1c[nH]c2ccccc12 ?
Y

---
hey, is Muscle, averaged ethidium numbers for this one >= 40? Brc1ccc2[nH]ccc2c1
Y

Item O=C(O)c1cc2cc(Br)ccc2[nH]1 with Muscle, averaged ethidium numbers of 40 or above?
N

====

- System: adipocytes over nerve cells, dermal cells, muscle cells, and endothelial cells
- experimental_protocol: LIVE/DEAD assay, tissue preference (adipocytes versus other cell types)
- Format: cell-based, human
- conditions_used: Example 2, FIGS. 5-8 and table; 2 and 5 hours in FIGS. 6-8
metric_name: tissue specificity / tissue preference

Tell me tissue specificity / tissue preference reported for O=C(O)c1cccc2[nH]ccc12 [Compound 27, 1H-indole-4-carboxylic acid]
high specificity

Return tissue specificity / tissue preference for the following compound: O=C(O)c1ccc2[nH]ccc2c1 [Compound 28, 1H-indole-5-carboxylic acid]
high specificity

====

Endothelial, relative kill rate rated against the adipocyte kill rate values, listed per item
- Test system: endothelial cells
- experimental_protocol: LIVE/DEAD calcein/ethidium bromide assay, endothelial cell kill rate
- Type: cell-based, human
- conditions_used: percentage in brackets
The reply should contain only the number, in %.

In the examples that follow, each entry is paired with its recorded Endothelial, relative kill rate rated against the adipocyte kill rate.
Entry O=C(O)c1cc2ccccc2[nH]1 needs its Endothelial, relative kill rate rated against the adipocyte kill rate filled in; supply it.
10

For the compound O=Cc1ccc2[nH]ccc2c1 , report Endothelial, relative kill rate rated against the adipocyte kill rate.
59

// Input: O=C(O)CCCc1c[nH]c2ccccc12 . Output its Endothelial, relative kill rate rated against the adipocyte kill rate only.
37

Attention now turns to another entry.
Return value of Endothelial, relative kill rate rated against the adipocyte kill rate for input O=Cc1c[nH]c2cc(OCc3ccccc3)ccc12 , no commentary.
59
